Source of measurements: patent US20240124432A1

Catalogue of compounds with associated pest or weed control at 250 g/ha
- Test system: LOLPE
- PROTOCOL: Post-emergence biological efficacy
- Assay type: in vivo
- CONDITIONS: Lolium perenne, 312 h, evaluated after 13 days, read-out: damage to plant (100=total damage to plant; 0=no damage to plant)
# unit: % | format: bare number

CCOC(=O)C1(C)CC(c2cc(-c3cnc(C(F)(F)F)cn3)c(F)cc2Cl)=NO1 (stereo not drawn) : 70
CCOC(=O)C1(C)CC(c2cc(-c3ncc(C(F)(F)F)nc3Cl)c(F)cc2Cl)=NO1 (stereo not drawn) : 70

Let us move to another entry and its pest or weed control at 250 g/ha.
Reading of pest or weed control at 250 g/ha for CCOC(=O)C1(C)CC(c2cc(-c3ccc(C)nc3)c(F)cc2Cl)=NO1 (stereo not drawn) with LOLPE: 0

====

- Test system: ECHCG
- PROTOCOL: Post-emergence biological efficacy
- Assay type: in vivo
- CONDITIONS: Echinochloa crus-galli, 312 h, evaluated after 13 days, read-out: damage to plant (100=total damage to plant; 0=no damage to plant)
Each entry below carries its reported pest or weed control at 250 g/ha.
Could you give me the number in %? Just the number is fine.

In plain terms, CCOC(=O)C1(C)CC(c2cc(-c3ccnc(C(F)(F)F)c3)c(F)cc2Cl)=NO1 (stereo not shown) [Compound 1-499] has a documented pest or weed control at 250 g/ha of 50

====

- Tested on: LOLPE
- PROTOCOL: Pre-emergence biological efficacy
- Assay type: in vivo
- CONDITIONS: Lolium perenne, 312 h, evaluated after 13 days, read-out: damage to plant (100=total damage to plant; 0=no damage to plant)
READOUT KIND: pest or weed control at 250 g/ha (%)
Enter your answer as a number in %; do not include the unit.

Sample answers from the record:
CCOC(=O)C1(C)CC(c2cc(-c3cncc(Cl)c3)c(F)cc2Cl)=NO1 (centres unmarked) : 0
CCOC(=O)C1(C)CC(c2cc(-c3cnc(C)cn3)c(F)cc2Cl)=NO1 (centres unmarked) : 0
CCOC(=O)C1(C)CC(c2cc(-c3nccnc3C)c(F)cc2Cl)=NO1 (centres unmarked) : 0
CCOC(=O)C1(C)CC(c2cc(-c3ncc(C(F)(F)F)nc3Cl)c(F)cc2Cl)=NO1 (centres unmarked) : 10
CCOC(=O)C1(C)CC(c2cc(-c3ccccn3)c(F)cc2Cl)=NO1 (centres unmarked) : 0
CCOC(=O)C1(C)CC(c2cc(-c3cnc(F)c(F)c3)c(F)cc2Cl)=NO1 (centres unmarked) : 0
CCOC(=O)C1(C)CC(c2cc(-c3ccc(C)cc3Cl)c(F)cc2Cl)=NO1 (centres unmarked) : 0
CCOC(=O)C1(C)CC(c2cc(-c3ncc(Cl)cc3Cl)c(F)cc2Cl)=NO1 (centres unmarked) : 50
CCOC(=O)C1(C)CC(c2cc(-c3ncc(C)cc3Cl)c(F)cc2Cl)=NO1 (centres unmarked) : 20
CCOC(=O)C1(C)CC(c2cc(-c3cc(Cl)nc(OC)c3)c(F)cc2Cl)=NO1 (centres unmarked) : 0

So for CCOC(=O)C1(C)CC(c2cc(-c3cccnc3)c(F)cc2Cl)=NO1 (centres unmarked) , the logged pest or weed control at 250 g/ha turned out to be 0

====

- System: LOLPE
- PROTOCOL: Pre-emergence biological efficacy
- Format: in vivo
- CONDITIONS: Lolium perenne, 312 h, evaluated after 13 days, read-out: damage to plant (100=total damage to plant; 0=no damage to plant)
READOUT KIND: pest or weed control at 250 g/ha

pest or weed control at 250 g/ha recorded for this molecule, CCOC(=O)C1(C)CC(c2cc(-c3ncc(C(F)F)cc3Cl)c(F)cc2Cl)=NO1 (stereo not drawn) [Compound 1-583] , is 60%

The molecule CCOC(=O)C1(C)CC(c2cc(-c3cc(C(F)(F)F)cc(Cl)n3)c(F)cc2Cl)=NO1 (stereo not drawn) [Compound 1-67] showed pest or weed control at 250 g/ha equal to 0%

The molecule listed as CC1(C(=O)O)CC(c2cc(-c3ncc(C(F)(F)F)cc3Cl)c(F)cc2Cl)=NO1 (stereo not drawn) [Compound 1-101] shows pest or weed control at 250 g/ha equal to 80%

Data point: CCOC(=O)C1(C)CC(c2cc(-c3ncc([N+](=O)[O-])cc3Cl)c(F)cc2Cl)=NO1 (stereo not drawn) [Compound 1-355] ; pest or weed control at 250 g/ha = 20%

The molecule identified as CCOC(=O)C1(C)CC(c2cc(-c3cccc(C(F)(F)F)n3)c(F)cc2Cl)=NO1 (stereo not drawn) [Compound 1-43] registered its pest or weed control at 250 g/ha at 0%

Field pest or weed control at 250 g/ha (entry CCOC(=O)C1(C)CC(c2cc(-c3ccc(C(F)(F)F)cn3)c(F)cc2Cl)=NO1 (stereo not drawn) [Compound 1-79] ) reads 40%

====

- Tested on: ECHCG
- PROTOCOL: Post-emergence biological efficacy
- Type: in vivo
- CONDITIONS: Echinochloa crus-galli, 312 h, evaluated after 13 days, read-out: damage to plant (100=total damage to plant; 0=no damage to plant)
- Experimental: Seeds of weeds and/or crops were sown in standard soil in pots. […] The test plants were then grown under controlled conditions in the glasshouse (at 24/18° C., day/night; 15 hours light; 50% humidity)and watered twice daily. After 13 days the test was evaluated (100=total damage to plant; 0=no damage to plant).
READOUT KIND: pest or weed control at 250 g/ha
Field note: include the unit after the figure.

A selection of reference data follows.
CCOC(=O)C1(C)CC(c2cc(-c3cncc(C(F)(F)F)n3)c(F)cc2Cl)=NO1 (stereo not drawn) [Compound 1-727] : 90%
CCOC(=O)C1(C)CC(c2cc(-c3ncccc3Cl)c(F)cc2Cl)=NO1 (stereo not drawn) [Compound 1-127] : 90%

Entry CCOC(=O)C1(C)CC(c2cc(-c3ncc(C#N)cc3Cl)c(F)cc2Cl)=NO1 (stereo not drawn) [Compound 1-607] , pest or weed control at 250 g/ha reported as 40%

====

- Tested on: LOLPE
- PROTOCOL: Pre-emergence biological efficacy
- Type: in vivo
- CONDITIONS: Lolium perenne, 312 h, evaluated after 13 days, read-out: damage to plant (100=total damage to plant; 0=no damage to plant)
READOUT KIND: pest or weed control at 250 g/ha
Please make sure the unit comes right after the number.

// below: answered molecules
CCOC(=O)C1(C)CC(c2cc(-c3ncc(F)cc3F)c(F)cc2Cl)=NO1 (stereo not drawn) : 50%
CCOC(=O)C1(C)CC(c2cc(-c3cnccc3OC)c(F)cc2Cl)=NO1 (stereo not drawn) : 0%

Then there is this molecule:
The molecule listed as CCOC(=O)C1(C)CC(c2cc(-c3cnc4c(c3)OC(F)(F)O4)ccc2C#N)=NO1 (stereo not drawn) shows pest or weed control at 250 g/ha equal to 40%
